- protocol notes: clinical
- Parameters: species or system human
- condition context: human, in vivo, iv, 5 mg
Peptide text beside a SMILES is read from it.
test readout: half-life (h)
Number only, in h; omit the unit.

Q: I am curious: what half-life value has been reported for CC(=O)N[C@H](C(=O)N[C@H](CO)C(=O)N[C@H]1CCNC(=O)[C@H]([C@@H](C)O)NC(=O)[C@H](CCN)NC(=O)[C@H](CCN)NC(=O)[C@H](CC(C)C)NC(=O)[C@@H](Cc2ccccc2)NC(=O)[C@H](CCN)NC1=O)[C@@H](C)O [SPR741] (HELM PEPTIDE1{[ac].T.[dS].[Dab].[Dab].[dF].L.[Dab].[Dab].T}$PEPTIDE1,PEPTIDE1,4:R3-10:R2$$$V2.0) ?
Result: 2.02

---

- protocol notes: clinical
- condition context: human, in vivo, iv, 400 mg, AUC0-inf
- Procedure: The drug-drug interaction study was a phase 1, single-center, multiarm, open-label, randomized, three-period crossover study. […] For the SAD phase, blood samples were obtained predose (within 10 min), at 30 min following the start of infusion, at the end of infusion, and at 75, 90, 105, 120, and 150 min and 3, 4, 5, 6, 8, 10, 12, and 24 h following the start of infusion. […] Unique transitions were monitored for all test articles and internal standards. […]
Peptide text beside a SMILES is read from it.
test readout: AUC(0-inf) (ng·h/mL)
Number only, in ng·h/mL; omit the unit.

Q: I am curious: what AUC(0-inf) value has been reported for CC(=O)N[C@H](C(=O)N[C@H](CO)C(=O)N[C@H]1CCNC(=O)[C@H]([C@@H](C)O)NC(=O)[C@H](CCN)NC(=O)[C@H](CCN)NC(=O)[C@H](CC(C)C)NC(=O)[C@@H](Cc2ccccc2)NC(=O)[C@H](CCN)NC1=O)[C@@H](C)O [SPR741] (HELM PEPTIDE1{[ac].T.[dS].[Dab].[Dab].[dF].L.[Dab].[Dab].T}$PEPTIDE1,PEPTIDE1,4:R3-10:R2$$$V2.0) ?
Result: 90300

---

- protocol notes: clinical
- Design: species or system human
- condition context: human, in vivo, iv, 15 mg
Peptide text beside a SMILES is read from it.
test readout: half-life (h)
Number only, in h; omit the unit.

Q: I am curious: what half-life value has been reported for CC(=O)N[C@H](C(=O)N[C@H](CO)C(=O)N[C@H]1CCNC(=O)[C@H]([C@@H](C)O)NC(=O)[C@H](CCN)NC(=O)[C@H](CCN)NC(=O)[C@H](CC(C)C)NC(=O)[C@@H](Cc2ccccc2)NC(=O)[C@H](CCN)NC1=O)[C@@H](C)O [SPR741] (HELM PEPTIDE1{[ac].T.[dS].[Dab].[Dab].[dF].L.[Dab].[Dab].T}$PEPTIDE1,PEPTIDE1,4:R3-10:R2$$$V2.0) ?
Result: 2.81

---

- protocol notes: clinical
- Design: species or system human
- condition context: human, in vivo, iv, 5 mg
Peptide text beside a SMILES is read from it.
test readout: Cmax (ng/mL)
Number only, in ng/mL; omit the unit.

Q: I am curious: what Cmax value has been reported for CC(=O)N[C@H](C(=O)N[C@H](CO)C(=O)N[C@H]1CCNC(=O)[C@H]([C@@H](C)O)NC(=O)[C@H](CCN)NC(=O)[C@H](CCN)NC(=O)[C@H](CC(C)C)NC(=O)[C@@H](Cc2ccccc2)NC(=O)[C@H](CCN)NC1=O)[C@@H](C)O [SPR741] (HELM PEPTIDE1{[ac].T.[dS].[Dab].[Dab].[dF].L.[Dab].[Dab].T}$PEPTIDE1,PEPTIDE1,4:R3-10:R2$$$V2.0) ?
Result: 370

---

- protocol notes: clinical
- Parameters: species or system human
- condition context: human, in vivo, iv, 800 mg
Peptide text beside a SMILES is read from it.
test readout: clearance (mL/min)
Number only, in mL/min; omit the unit.

Q: I am curious: what clearance value has been reported for CC(=O)N[C@H](C(=O)N[C@H](CO)C(=O)N[C@H]1CCNC(=O)[C@H]([C@@H](C)O)NC(=O)[C@H](CCN)NC(=O)[C@H](CCN)NC(=O)[C@H](CC(C)C)NC(=O)[C@@H](Cc2ccccc2)NC(=O)[C@H](CCN)NC1=O)[C@@H](C)O [SPR741] (HELM PEPTIDE1{[ac].T.[dS].[Dab].[Dab].[dF].L.[Dab].[Dab].T}$PEPTIDE1,PEPTIDE1,4:R3-10:R2$$$V2.0) ?
Result: 70.8

---

- protocol notes: clinical
- condition context: human, in vivo, iv, 400 mg, Cmax, geometric LSM, reference treatment
Peptide text beside a SMILES is read from it.
test readout: Cmax (ng/mL)
Number only, in ng/mL; omit the unit.

Q: I am curious: what Cmax value has been reported for CC(=O)N[C@H](C(=O)N[C@H](CO)C(=O)N[C@H]1CCNC(=O)[C@H]([C@@H](C)O)NC(=O)[C@H](CCN)NC(=O)[C@H](CCN)NC(=O)[C@H](CC(C)C)NC(=O)[C@@H](Cc2ccccc2)NC(=O)[C@H](CCN)NC1=O)[C@@H](C)O [SPR741] (HELM PEPTIDE1{[ac].T.[dS].[Dab].[Dab].[dF].L.[Dab].[Dab].T}$PEPTIDE1,PEPTIDE1,4:R3-10:R2$$$V2.0) ?
Result: 28800

---

- protocol notes: clinical
- Design: species or system human
- condition context: human, in vivo, iv, 15 mg
- From the text: The SAD/MAD study was a phase 1, double-blind, placebo-controlled, multicohort trial. Part 1 used a SAD design according to which subjects received a single i.v. dose of SPR741. Part 2 used a MAD design in which subjects received multiple daily i.v. doses of SPR741 over a period of 14 days. The objective was to assess the safety/tolerability and PK of single and multiple ascending doses of SPR741. In the SAD phase, healthy volunteers were screened within 28 days prior to dosing. […]
Peptide text beside a SMILES is read from it.
test readout: Vd (L)
Number only, in L; omit the unit.

Q: I am curious: what Vd value has been reported for CC(=O)N[C@H](C(=O)N[C@H](CO)C(=O)N[C@H]1CCNC(=O)[C@H]([C@@H](C)O)NC(=O)[C@H](CCN)NC(=O)[C@H](CCN)NC(=O)[C@H](CC(C)C)NC(=O)[C@@H](Cc2ccccc2)NC(=O)[C@H](CCN)NC1=O)[C@@H](C)O [SPR741] (HELM PEPTIDE1{[ac].T.[dS].[Dab].[Dab].[dF].L.[Dab].[Dab].T}$PEPTIDE1,PEPTIDE1,4:R3-10:R2$$$V2.0) ?
Result: 19.7

---

- protocol notes: clinical
- Design: species or system human
- condition context: human, in vivo, iv, 800 mg
Peptide text beside a SMILES is read from it.
test readout: half-life (h)
Number only, in h; omit the unit.

Q: I am curious: what half-life value has been reported for CC(=O)N[C@H](C(=O)N[C@H](CO)C(=O)N[C@H]1CCNC(=O)[C@H]([C@@H](C)O)NC(=O)[C@H](CCN)NC(=O)[C@H](CCN)NC(=O)[C@H](CC(C)C)NC(=O)[C@@H](Cc2ccccc2)NC(=O)[C@H](CCN)NC1=O)[C@@H](C)O [SPR741] (HELM PEPTIDE1{[ac].T.[dS].[Dab].[Dab].[dF].L.[Dab].[Dab].T}$PEPTIDE1,PEPTIDE1,4:R3-10:R2$$$V2.0) ?
Result: 3.46

---

- protocol notes: clinical
- Design: species or system human
- condition context: human, in vivo, iv, 5 mg
- From the text: The SAD/MAD study was a phase 1, double-blind, placebo-controlled, multicohort trial. Part 1 used a SAD design according to which subjects received a single i.v. dose of SPR741. Part 2 used a MAD design in which subjects received multiple daily i.v. doses of SPR741 over a period of 14 days. The objective was to assess the safety/tolerability and PK of single and multiple ascending doses of SPR741. In the SAD phase, healthy volunteers were screened within 28 days prior to dosing. […]
Peptide text beside a SMILES is read from it.
test readout: clearance (mL/min)
Number only, in mL/min; omit the unit.

Q: I am curious: what clearance value has been reported for CC(=O)N[C@H](C(=O)N[C@H](CO)C(=O)N[C@H]1CCNC(=O)[C@H]([C@@H](C)O)NC(=O)[C@H](CCN)NC(=O)[C@H](CCN)NC(=O)[C@H](CC(C)C)NC(=O)[C@@H](Cc2ccccc2)NC(=O)[C@H](CCN)NC1=O)[C@@H](C)O [SPR741] (HELM PEPTIDE1{[ac].T.[dS].[Dab].[Dab].[dF].L.[Dab].[Dab].T}$PEPTIDE1,PEPTIDE1,4:R3-10:R2$$$V2.0) ?
Result: 83.3

meta.source: paper PMC6709486
